# Tested on: MDA-MB-468 breast
# Protocol summary: NCI tumour cell line growth inhibition, 48 h
Quick reference: TGI of the listed items.
Attribute measured: TGI (µM)

- CCCCCC(=C/c1ccccc1)/C=N/N=C(N)N: 3
- O=C(OCCOCCO)N(c1cccc(Br)c1)c1nc(SCCN2CCOCC2)nc2c1cnn2CC(Cl)c1ccc(Br)cc1 (centres undefined): 7.63
- Cc1ccc2c(n1)C(=O)C(Cl)=C(Nc1ccc(C#N)cc1)C2=O: 3.81
- C=C(C)[C@@H]1CC[C@]2(CN)CC[C@]3(C)[C@H](CC[C@@H]4[C@@]5(C)CCC(N)[C@@](C)(CO)[C@@H]5CC[C@]43C)[C@@H]12 (some centres undefined): 3.42
- CCN(CC)CCOc1ccc(Cc2ccccc2)cc1: 41.2
- CCCCCCCCCCCCC(NC(C)=O)(C(=O)OCC)C(=O)OCC: 18.6
- COC1C(O)CC(OC2CC(OC3CC(O[C@@H]4C(=O)c5c(cc6cc(OC7CC(OC8CC(O)C(O)C(C)O8)C(O)C(C)O7)c(C)c(O)c6c5O)CC4[C@H](OC)[C@@H](O)C(C)=O)OC(C)C3O)OC(C)C2O)OC1C (some centres undefined): 2.65
- C=C1C(=O)O[C@H]2[C@H]1CC/C(Cn1cc(-c3ccsc3)nn1)=C\CC[C@@]1(C)O[C@@H]21: 3.56
- C=C1CCC2C3(C)COC(c4cc(F)cc(F)c4)OC3CCC2(C)C1C/C=C1/C(=O)OCC1O (centres undefined): 3.16
- COc1ccc(C(=O)c2cc(C)c(OC)c(C)c2)c(OC)c1N(C(=O)CCl)C(=O)CCl: 1.37
- COc1ccc(-c2cc(-c3ccc(Cl)cc3)nc(SCCCCCCC(=O)NO)n2)cc1: 7.19
- O=C(NN1C(=O)/C(=C/C=C/c2ccc([N+](=O)[O-])o2)SC1=S)c1ccc(Cl)cc1: 3.09
- Cc1ccccc1C[P+](c1ccccc1)(c1ccccc1)c1ccccc1: 1.16
